Cited source: patent US20230374150A1

koff listing for selected binders.
Target: T1, Human PSMA antigen (human, UniProt Q04609 44-750, limits assumed)
T1 construct: This is the antigen immobilised on the Biacore chip; also called FOLH1_HUMAN
T1 sequence (Q04609 44-750 limits assumed): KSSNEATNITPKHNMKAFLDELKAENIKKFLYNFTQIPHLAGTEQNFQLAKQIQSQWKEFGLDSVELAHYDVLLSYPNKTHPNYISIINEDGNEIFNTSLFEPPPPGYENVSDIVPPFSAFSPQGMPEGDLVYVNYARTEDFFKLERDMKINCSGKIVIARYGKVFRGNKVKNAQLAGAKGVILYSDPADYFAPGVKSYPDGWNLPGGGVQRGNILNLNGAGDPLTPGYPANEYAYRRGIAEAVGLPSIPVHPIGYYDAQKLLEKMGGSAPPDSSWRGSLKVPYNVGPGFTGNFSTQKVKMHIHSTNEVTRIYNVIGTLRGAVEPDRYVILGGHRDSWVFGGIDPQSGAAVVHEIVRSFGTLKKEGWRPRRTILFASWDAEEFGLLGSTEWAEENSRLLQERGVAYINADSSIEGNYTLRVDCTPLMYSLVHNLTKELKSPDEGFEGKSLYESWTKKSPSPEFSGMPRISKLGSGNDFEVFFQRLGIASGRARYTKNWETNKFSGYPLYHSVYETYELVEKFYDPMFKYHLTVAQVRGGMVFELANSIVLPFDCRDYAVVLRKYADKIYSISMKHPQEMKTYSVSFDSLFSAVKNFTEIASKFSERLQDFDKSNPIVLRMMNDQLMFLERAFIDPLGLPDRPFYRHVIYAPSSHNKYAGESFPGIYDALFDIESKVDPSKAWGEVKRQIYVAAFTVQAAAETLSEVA
Assay: SPR (Biacore), 37 C, antibody over immobilized PSMA
From the text: The calculated kinetic parameters derived from SPR are shown in FIG. 4C, showing distinct differences in affinities when compared to the chimeric and the original mouse antibody J591. Increased affinity of anti-PSMA antibodies should translate into higher potency, while lower affinity anti-PSMA antibodies into lower toxicity. This affinity modulation is achieved without altering the CDR sequences. […]
Number only, in s⁻¹; omit the unit.

Guide cases for koff, answers given:
binder: huJ591 (J591_VH-1 + J591_VL-3) (antibody, human IgG1, V domains shown, One of the 9 huJ591 versions; Human IgG1 frameworks) VH: QVQLVQSGAEVKKPGASVKVSCKASGYTFTEYTMHWVRQAPGQGLEWMGNINPNNGGTTYAQKFQGRVTMTRDKSISTAYMELSRLRSDDTAVYYCAAGWNFDYWGQGTLVTVSS VL: DIVMTQSPSSLSASVGDRVTITCRASQDVGTALDWYQQKPGKAPELLIYWASSLHSGVPSRFRGSGSGTDFTLTISSVQPEDFATYYCQQYNSYPLTFGQGTKLEIK
unit-of-measurement: s⁻¹
koff: 0.000285
--
binder: huJ591 (J591_VH-2 + J591_VL-2) (antibody, human IgG1, V domains shown, One of the 9 huJ591 versions; Human IgG1 frameworks) VH: QVQLVQSGAEVKKPGASVKVSCKASGYTFTEYTMHWVRQAPGQGLEWMGNINPNNGGTTYNQKFQGRVTMTVDKSISTAYMELSRLRSDDTAVYYCAAGWNFDYWGQGTLVTVSS VL: DIQLTQSPSFLSASVGDRVTITCRASQDVGTALDWYQQKPGKAPKLLIYWASTRHSGVPSRFSGSGSGTEFTLTISSLQPEDFATYYCQQYNSYPLTFGQGTKLEIK
unit-of-measurement: s⁻¹
koff: 0.000286
--
binder: huJ591 clone having combination of J591_VL-1 and J591_VH-3 (antibody, V domains shown, also called the select clone) VH: QVQLVQSGAEVKKPGASVKVSCKASGYTFTEYTMHWVRQAPGQRLEWMGNINPNNGGTTYSQKFQGRVTITVDKSASTAYMELSSLRSEDTAVYYCAAGWNFDYWGQGTLVTVSS VL: DIQLTQSPSFLSASVGDRVTITCRASQDVGTALDWYQQKPGKAPKLLIYWASTLHSGVPSRFSGSGSGTEFTLTISSLQPEDFATYYCQQYNSYPLTFGQGTKLEIKR
unit-of-measurement: s⁻¹
koff: 9.69e-05

Q: I have this binder here, huJ591 (J591_VH-1 + J591_VL-2) (antibody, human IgG1, V domains shown, One of the 9 huJ591 versions; Human IgG1 frameworks) VH: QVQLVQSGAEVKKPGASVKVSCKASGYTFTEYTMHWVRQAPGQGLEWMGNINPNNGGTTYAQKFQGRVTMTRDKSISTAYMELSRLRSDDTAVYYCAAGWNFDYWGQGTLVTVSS VL: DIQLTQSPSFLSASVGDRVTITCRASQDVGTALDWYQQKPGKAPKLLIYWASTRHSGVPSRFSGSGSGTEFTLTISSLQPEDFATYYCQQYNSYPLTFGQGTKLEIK , and I need its recorded koff.
Result: 0.000379

Q: I have this binder here, huJ591 (J591_VH-2 + J591_VL-3) (antibody, human IgG1, V domains shown, One of the 9 huJ591 versions; Human IgG1 frameworks) VH: QVQLVQSGAEVKKPGASVKVSCKASGYTFTEYTMHWVRQAPGQGLEWMGNINPNNGGTTYNQKFQGRVTMTVDKSISTAYMELSRLRSDDTAVYYCAAGWNFDYWGQGTLVTVSS VL: DIVMTQSPSSLSASVGDRVTITCRASQDVGTALDWYQQKPGKAPELLIYWASSLHSGVPSRFRGSGSGTDFTLTISSVQPEDFATYYCQQYNSYPLTFGQGTKLEIK , and I need its recorded koff.
Result: 0.000211
